Target: UniProtKB Q8A0E8
Sequence (Q8A0E8 whole entry): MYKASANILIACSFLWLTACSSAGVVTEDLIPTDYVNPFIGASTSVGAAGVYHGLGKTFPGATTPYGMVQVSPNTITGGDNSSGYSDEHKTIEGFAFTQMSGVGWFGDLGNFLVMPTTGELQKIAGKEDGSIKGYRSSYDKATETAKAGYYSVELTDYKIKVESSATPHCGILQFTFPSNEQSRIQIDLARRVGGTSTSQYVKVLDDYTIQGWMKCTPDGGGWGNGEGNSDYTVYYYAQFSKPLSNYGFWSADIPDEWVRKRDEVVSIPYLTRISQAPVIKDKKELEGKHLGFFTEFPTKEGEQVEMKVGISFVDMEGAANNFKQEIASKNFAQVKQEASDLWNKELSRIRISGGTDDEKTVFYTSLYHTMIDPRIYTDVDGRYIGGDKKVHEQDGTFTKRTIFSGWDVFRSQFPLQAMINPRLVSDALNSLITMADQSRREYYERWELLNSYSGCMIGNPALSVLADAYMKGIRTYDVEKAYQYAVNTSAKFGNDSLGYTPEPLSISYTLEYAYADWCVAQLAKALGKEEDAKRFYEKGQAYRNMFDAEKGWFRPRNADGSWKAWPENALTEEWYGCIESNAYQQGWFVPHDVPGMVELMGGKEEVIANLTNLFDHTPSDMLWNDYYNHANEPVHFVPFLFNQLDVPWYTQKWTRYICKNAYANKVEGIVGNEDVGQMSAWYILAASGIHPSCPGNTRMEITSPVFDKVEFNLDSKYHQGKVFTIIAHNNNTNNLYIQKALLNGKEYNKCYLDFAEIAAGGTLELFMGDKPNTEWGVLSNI
quantityMeasured: pKi
Scale for pKi: -log10 of concentration given in mol/L; no unit attached.

# get_value(readout='pKi', item= OC[C@@H]1[C@@H](O)[C@H](O)[C@H](O)c2nccn21 ) 3.44

* * *

Target: Alpha-1,2-mannosidase (BT_3784) (Bacteroides thetaiotaomicron, UniProt Q8A182)
Sequence (Q8A182 whole entry, change not shown): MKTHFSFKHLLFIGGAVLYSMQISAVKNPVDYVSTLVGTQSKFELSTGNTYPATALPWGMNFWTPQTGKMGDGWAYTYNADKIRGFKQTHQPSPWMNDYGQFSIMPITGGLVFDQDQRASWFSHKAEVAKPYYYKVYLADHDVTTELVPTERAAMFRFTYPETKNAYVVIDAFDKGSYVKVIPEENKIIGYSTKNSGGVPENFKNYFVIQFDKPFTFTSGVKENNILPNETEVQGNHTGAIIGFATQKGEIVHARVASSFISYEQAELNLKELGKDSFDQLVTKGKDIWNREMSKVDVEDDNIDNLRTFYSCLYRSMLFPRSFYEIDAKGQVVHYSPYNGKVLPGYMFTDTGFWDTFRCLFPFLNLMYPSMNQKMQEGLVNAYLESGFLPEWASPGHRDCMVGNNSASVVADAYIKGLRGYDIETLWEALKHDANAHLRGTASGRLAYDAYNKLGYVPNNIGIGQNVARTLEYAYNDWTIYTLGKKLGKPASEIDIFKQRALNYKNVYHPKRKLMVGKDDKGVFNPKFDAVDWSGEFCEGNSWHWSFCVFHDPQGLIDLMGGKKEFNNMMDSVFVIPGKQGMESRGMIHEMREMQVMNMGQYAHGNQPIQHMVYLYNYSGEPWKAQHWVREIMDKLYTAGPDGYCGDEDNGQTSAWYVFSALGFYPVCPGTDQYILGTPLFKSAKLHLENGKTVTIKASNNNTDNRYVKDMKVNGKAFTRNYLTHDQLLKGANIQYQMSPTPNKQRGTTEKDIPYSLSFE
quantityMeasured: Ki (mM)
Give a bare numeral; the unit mM is implied.

Any idea what Ki came out for OC[C@@H]1[C@@H](O)[C@H](O)[C@H](O)c2nccn21 on Alpha-1,2-mannosidase (BT_3784) (Bacteroides thetaiotaomicron, UniProt Q8A182)? 5.8

* * *

Target: Alpha-1,2-mannosidase (BT_2629) (Bacteroides thetaiotaomicron) (UniProt Q8A4H0)
Sequence (Q8A4H0 as listed by the source, change not shown): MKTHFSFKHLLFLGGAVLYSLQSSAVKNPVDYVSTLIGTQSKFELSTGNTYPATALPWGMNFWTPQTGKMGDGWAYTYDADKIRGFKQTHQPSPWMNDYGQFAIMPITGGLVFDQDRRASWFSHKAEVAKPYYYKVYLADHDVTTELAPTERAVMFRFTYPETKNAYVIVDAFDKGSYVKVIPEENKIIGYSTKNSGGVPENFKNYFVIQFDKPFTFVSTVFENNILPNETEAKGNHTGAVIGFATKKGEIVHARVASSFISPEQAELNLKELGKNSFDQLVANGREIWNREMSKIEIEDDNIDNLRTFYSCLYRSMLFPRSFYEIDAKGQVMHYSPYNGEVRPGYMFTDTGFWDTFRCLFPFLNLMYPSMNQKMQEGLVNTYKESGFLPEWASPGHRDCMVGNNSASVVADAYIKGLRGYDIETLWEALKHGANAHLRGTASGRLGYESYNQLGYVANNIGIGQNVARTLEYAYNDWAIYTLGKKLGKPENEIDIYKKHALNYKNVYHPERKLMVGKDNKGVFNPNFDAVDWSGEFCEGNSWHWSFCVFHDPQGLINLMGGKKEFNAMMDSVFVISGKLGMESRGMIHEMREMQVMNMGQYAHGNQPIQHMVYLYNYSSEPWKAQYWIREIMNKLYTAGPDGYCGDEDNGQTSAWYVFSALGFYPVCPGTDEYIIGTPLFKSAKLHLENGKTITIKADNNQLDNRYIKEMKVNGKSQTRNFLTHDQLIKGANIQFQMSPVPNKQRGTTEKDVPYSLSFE
Assay: Activity of Bacteroides thetaiotaomicron GH92 alpha-mannosidase GH92 alpha-mannosidase 2629 assessed as mannose release at 1 mM after 16 hrs by HPLC relative to untreated control after 16 hrs by HPLC
Assay type: protein assay
Calls of active or inactive are those of the source. The rule behind the calls is not given here.
quantityMeasured: Activity

- smilesRepr: "OC[C@H]1O[C@H](OC[C@H]2O[C@H](O)[C@@H](O)[C@@H](O)[C@@H]2O)[C@@H](O)[C@@H](O)[C@@H]1O"
  targetSystem: "Alpha-1,2-mannosidase (BT_2629) (Bacteroides thetaiotaomicron) (UniProt Q8A4H0)"
  quantityMeasured: "Activity"
  result: "inactive"
- smilesRepr: "OC[C@H]1O[C@H](O[C@H]2[C@H](O)[C@H](O)[C@@H](O)O[C@@H]2CO)[C@@H](O)[C@@H](O)[C@@H]1O"
  targetSystem: "Alpha-1,2-mannosidase (BT_2629) (Bacteroides thetaiotaomicron) (UniProt Q8A4H0)"
  quantityMeasured: "Activity"
  result: "inactive"
- smilesRepr: "OC[C@H]1O[C@H](O[C@@H]2[C@H](O)[C@@H](O)O[C@H](CO)[C@H]2O)[C@@H](O)[C@@H](O)[C@@H]1O"
  targetSystem: "Alpha-1,2-mannosidase (BT_2629) (Bacteroides thetaiotaomicron) (UniProt Q8A4H0)"
  quantityMeasured: "Activity"
  result: "inactive"
- smilesRepr: "OC[C@H]1O[C@H](O[C@H]2[C@@H](O)[C@H](O)[C@@H](CO)O[C@@H]2O)[C@@H](O)[C@@H](O)[C@@H]1O"
  targetSystem: "Alpha-1,2-mannosidase (BT_2629) (Bacteroides thetaiotaomicron) (UniProt Q8A4H0)"
  quantityMeasured: "Activity"
  result: "inactive"

* * *

Molecular target: Alpha-1,2-mannosidase (BT_3965) (Bacteroides thetaiotaomicron)
Sequence (Q8A0Q6 whole entry): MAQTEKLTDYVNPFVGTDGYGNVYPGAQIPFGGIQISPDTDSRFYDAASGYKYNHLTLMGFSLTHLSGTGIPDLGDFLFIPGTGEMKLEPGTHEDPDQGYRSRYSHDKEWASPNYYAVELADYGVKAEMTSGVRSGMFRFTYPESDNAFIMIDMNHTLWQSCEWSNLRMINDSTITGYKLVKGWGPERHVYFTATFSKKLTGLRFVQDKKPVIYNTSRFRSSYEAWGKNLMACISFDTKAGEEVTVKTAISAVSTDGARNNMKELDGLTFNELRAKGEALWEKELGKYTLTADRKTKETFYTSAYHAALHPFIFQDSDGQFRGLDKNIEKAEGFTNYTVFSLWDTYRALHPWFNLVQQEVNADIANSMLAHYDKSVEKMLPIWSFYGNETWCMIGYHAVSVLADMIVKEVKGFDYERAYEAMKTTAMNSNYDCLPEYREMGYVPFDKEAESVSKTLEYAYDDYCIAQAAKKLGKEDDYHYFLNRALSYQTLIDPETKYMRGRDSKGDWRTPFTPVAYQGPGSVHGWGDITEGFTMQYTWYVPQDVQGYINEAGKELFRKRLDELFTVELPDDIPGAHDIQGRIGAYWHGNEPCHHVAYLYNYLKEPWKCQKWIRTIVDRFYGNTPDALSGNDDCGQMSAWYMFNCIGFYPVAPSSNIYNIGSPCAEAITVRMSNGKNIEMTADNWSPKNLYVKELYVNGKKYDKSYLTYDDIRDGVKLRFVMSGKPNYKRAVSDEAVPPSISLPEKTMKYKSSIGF
quantityMeasured: pKi
Scale for pKi: -log10 of concentration given in mol/L; no unit attached.

# get_value(readout='pKi', item= OC[C@@H]1[C@@H](O)[C@H](O)[C@H](O)c2nccn21 [MANNOIMIDAZOLE] ) 6.40

* * *

Target: Glycoside hydrolase family 92 (BT_3963) (Bacteroides thetaiotaomicron)
Sequence (Q8A0Q8 whole entry): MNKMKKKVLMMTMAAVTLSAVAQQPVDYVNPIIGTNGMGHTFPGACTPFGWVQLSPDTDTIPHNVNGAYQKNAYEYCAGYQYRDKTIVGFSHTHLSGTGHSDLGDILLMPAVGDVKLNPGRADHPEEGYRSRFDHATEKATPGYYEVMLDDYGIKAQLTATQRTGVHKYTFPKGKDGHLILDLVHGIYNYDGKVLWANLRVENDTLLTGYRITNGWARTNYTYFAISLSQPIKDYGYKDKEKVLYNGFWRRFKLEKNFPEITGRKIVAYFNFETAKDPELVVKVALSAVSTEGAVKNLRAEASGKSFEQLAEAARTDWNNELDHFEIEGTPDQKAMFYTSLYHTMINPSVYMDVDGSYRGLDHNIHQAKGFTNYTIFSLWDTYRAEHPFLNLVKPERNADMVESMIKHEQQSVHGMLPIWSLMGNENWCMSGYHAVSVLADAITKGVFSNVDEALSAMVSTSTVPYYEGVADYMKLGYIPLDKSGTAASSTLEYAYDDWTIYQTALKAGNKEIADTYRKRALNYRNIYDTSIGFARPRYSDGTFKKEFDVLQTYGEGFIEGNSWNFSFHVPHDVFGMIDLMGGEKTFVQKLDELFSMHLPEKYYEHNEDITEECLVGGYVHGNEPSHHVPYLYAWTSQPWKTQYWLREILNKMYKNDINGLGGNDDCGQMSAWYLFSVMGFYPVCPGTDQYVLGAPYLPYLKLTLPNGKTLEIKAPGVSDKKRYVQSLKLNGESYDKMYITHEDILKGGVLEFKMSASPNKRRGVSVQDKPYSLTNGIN
quantityMeasured: Ki (µM)
Give a bare numeral; the unit µM is implied.

# get_value(readout='Ki', item= OC[C@@H]1[C@@H](O)[C@H](O)[C@H](O)c2nccn21 ) 790

* * *

Target: Alpha-1,2-mannosidase (BT_3858) (Bacteroides thetaiotaomicron)
Sequence (Q8A113 whole entry): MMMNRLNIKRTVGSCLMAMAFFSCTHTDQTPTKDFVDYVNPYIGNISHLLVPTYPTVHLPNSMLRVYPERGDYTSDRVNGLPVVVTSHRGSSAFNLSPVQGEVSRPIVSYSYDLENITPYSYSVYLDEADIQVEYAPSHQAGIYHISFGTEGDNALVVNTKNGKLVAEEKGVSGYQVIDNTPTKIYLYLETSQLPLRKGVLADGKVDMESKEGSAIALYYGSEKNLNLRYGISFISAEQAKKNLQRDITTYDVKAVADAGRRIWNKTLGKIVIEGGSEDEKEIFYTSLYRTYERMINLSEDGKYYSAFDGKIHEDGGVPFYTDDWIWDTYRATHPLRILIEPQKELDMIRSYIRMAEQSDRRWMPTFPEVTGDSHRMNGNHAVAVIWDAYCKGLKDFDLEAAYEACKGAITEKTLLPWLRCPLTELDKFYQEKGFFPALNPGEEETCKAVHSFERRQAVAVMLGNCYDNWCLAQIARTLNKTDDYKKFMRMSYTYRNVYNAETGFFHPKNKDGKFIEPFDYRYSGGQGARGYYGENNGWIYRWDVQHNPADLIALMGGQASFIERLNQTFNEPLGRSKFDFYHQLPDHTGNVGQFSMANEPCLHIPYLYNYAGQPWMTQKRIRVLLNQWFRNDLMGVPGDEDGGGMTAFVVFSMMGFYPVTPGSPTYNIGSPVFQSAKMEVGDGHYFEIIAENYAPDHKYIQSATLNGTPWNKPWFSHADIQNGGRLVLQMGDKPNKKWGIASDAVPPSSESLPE
quantityMeasured: pKi
Scale for pKi: -log10 of concentration given in mol/L; no unit attached.

# get_value(readout='pKi', item= OC[C@@H]1[C@@H](O)[C@H](O)[C@H](O)c2nccn21 ) 3.59
